assayTarget: Serine/threonine-protein kinase 4 (Homo sapiens) (UniProt Q13043)
Sequence (whole entry): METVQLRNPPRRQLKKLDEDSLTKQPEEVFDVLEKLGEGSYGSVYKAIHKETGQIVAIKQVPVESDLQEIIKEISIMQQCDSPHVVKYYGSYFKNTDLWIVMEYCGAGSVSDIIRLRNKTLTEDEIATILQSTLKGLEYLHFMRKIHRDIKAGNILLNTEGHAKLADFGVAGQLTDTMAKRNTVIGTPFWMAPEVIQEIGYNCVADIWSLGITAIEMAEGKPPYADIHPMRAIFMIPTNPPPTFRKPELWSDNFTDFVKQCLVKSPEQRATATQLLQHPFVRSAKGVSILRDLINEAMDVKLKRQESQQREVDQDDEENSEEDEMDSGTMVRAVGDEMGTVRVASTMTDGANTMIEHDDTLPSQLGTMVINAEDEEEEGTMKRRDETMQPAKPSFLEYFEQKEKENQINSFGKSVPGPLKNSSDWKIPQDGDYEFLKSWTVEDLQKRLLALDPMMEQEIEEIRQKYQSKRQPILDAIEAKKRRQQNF
measurementKind: ΔTm (°C)
Reply numerically in °C, unit not repeated.

O=C1Nc2ccccc2/C1=C1/Nc2ccccc2/C1=N\O 8.4
O=S(=O)(NCCNC/C=C/c1ccc(Br)cc1)c1cccc2cnccc12 -0.2
Cc1cncc2cccc(S(=O)(=O)N3CCCNC[C@@H]3C)c12 3.3
CCN1/C(=C/C(C)=O)Sc2ccc(OC)cc21 0.1
CCOC(=O)c1c(C)[nH]c(/C=C2\C(=O)Nc3ccccc32)c1C 3

Next item in the queue.
Requested read-out: ΔTm. Entry: CCOc1ccc(/C=C2/SC(=O)N(CCN)C2=O)cc1
0.4

###

assayTarget: Cyclin-dependent kinase-like 1 (Homo sapiens) (UniProt Q00532)
Sequence (Q00532 whole entry): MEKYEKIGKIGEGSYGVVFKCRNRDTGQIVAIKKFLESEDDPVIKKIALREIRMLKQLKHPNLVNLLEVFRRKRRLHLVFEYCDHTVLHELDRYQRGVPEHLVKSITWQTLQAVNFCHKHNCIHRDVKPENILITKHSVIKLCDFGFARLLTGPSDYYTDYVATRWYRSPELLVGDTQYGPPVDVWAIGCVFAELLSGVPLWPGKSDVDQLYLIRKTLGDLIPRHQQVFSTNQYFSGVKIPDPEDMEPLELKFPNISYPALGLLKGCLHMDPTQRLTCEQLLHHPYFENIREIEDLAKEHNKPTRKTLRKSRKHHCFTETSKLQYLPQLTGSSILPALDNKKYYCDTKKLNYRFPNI
Where ΔTm equals or exceeds 0.3 °C, the correct label is 1 (yes); where it does not, the label is 0 (no).

Field: example entries. Status: answers known.
molecule	assignedCategory
CC(C)c1cc(/C=C(\C#N)C(=O)NCCCc2ccccc2)cc(C(C)C)c1O	1 (yes)
O=C1c2ccccc2-[n+]2ccc3c([nH]c4ccccc43)c21 [FASCAPLYSIN CHLORIDE]	0 (no)
CC[C@H](CO)Nc1nc(NCc2ccccc2)c2ncn(C(C)C)c2n1	0 (no)
COc1ccc(Cl)cc1NC(=O)Nc1cc(C)nc2ccccc12	1 (yes)
COc1cc(C[C@H]2C(=O)OC[C@@H]2Cc2ccc(OC)c(OC)c2)ccc1O	0 (no)

Answer whether ΔTm of CCN(CC)CCNC(=O)c1c(C)[nH]c(/C=C2\C(=O)Nc3ccc(Cl)cc32)c1C is greater than or equal to 0.3 °C.
0 (no)

Further, for Cc1nc(N)sc1-c1ccnc(Nc2cccc([N+](=O)[O-])c2)n1 ?
1 (yes)

What would you report for COc1nccc(-c2c(-c3ccc(F)cc3)ncn2[C@H]2CC[C@H](O)CC2)n1 ?
0 (no)

Also CN1CCC(Nc2ncc3ncnc(Nc4ccc(F)c(Cl)c4)c3n2)CC1 ?
1 (yes)

Also COc1ccc(S(=O)(=O)N(CCO)c2ccccc2CN(C)C/C=C/c2ccc(Cl)cc2)cc1 , if possible.
0 (no)

###

assayTarget: Lymphokine-activated killer T-cell-originated protein kinase (Homo sapiens) (UniProt Q96KB5)
Sequence (Q96KB5 whole entry): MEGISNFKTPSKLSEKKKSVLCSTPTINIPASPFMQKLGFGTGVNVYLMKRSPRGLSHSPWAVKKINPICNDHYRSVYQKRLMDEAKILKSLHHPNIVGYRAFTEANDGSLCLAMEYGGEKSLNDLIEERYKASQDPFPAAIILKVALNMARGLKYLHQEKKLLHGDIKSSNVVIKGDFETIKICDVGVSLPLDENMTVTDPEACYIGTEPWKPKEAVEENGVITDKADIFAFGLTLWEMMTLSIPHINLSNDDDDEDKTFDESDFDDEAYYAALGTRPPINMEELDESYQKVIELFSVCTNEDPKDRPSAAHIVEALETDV
measurementKind: ΔTm

compound	ΔTm
COc1ccc(S(=O)(=O)N(CCO)c2ccccc2CN(C)C/C=C/c2ccc(Cl)cc2)cc1	-0.1 °C

ΔTm for CCOC(=O)c1cnc2oc3ccc(O)cc3c2c1-c1ccccc1 ?
-0.2 °C

And for NC1=NC(=O)/C(=C2\CCNC(=O)c3[nH]c(Br)cc32)N1 ?
0.1 °C

Cc1cncc2cccc(S(=O)(=O)N3CCCNC[C@@H]3C)c12 , same question.
1 °C

Quick one: CCN1/C(=C/C(C)=O)Sc2ccc(OC)cc21
1.1 °C

Next record, please: O=S(=O)(c1cccc2c(Cl)cccc12)N1CCCNCC1
0 °C

###

protocolNotes: Inhibition of GSK3
measurementKind: Ki (nM)
Answer in nM, number only, no unit symbol.

Quick one: Ki for Cc1cc(Nc2nc(-c3ccccc3)nc3ccccc23)n[nH]1 ?
24

###

assayTarget: Tyrosine-protein kinase JAK1 (Homo sapiens)
Param threshold (0.1 °C) applies to ΔTm; output rule met when value >= threshold, rule not met when value < threshold.

Worked examples, 4 compounds total:
compound	assignedCategory
C[S+]([O-])c1ccc(-c2nc(-c3ccc(F)cc3)c(-c3ccncc3)[nH]2)cc1 (configuration not stated) [SB-203580]	rule met
COc1cc2ncnc(Nc3ccc(F)c(Cl)c3)c2cc1OCCCN1CCOCC1	rule met
CCOC(=O)c1c(C)[nH]c(/C=C2\C(=O)Nc3ccccc32)c1C	rule met
CC(C)n1cnc2c(NCc3ccccc3)nc(NCCCO)nc21	rule met

Moving on to another compound below.
Evaluate COc1ccc(Cl)cc1NC(=O)Nc1cc(C)nc2ccccc12 : ΔTm at minimum 0.1 °C?
rule met

###

assayTarget: Dual specificity protein kinase CLK2 (Homo sapiens) (UniProt P49760)
Sequence (P49760 whole entry, looked up): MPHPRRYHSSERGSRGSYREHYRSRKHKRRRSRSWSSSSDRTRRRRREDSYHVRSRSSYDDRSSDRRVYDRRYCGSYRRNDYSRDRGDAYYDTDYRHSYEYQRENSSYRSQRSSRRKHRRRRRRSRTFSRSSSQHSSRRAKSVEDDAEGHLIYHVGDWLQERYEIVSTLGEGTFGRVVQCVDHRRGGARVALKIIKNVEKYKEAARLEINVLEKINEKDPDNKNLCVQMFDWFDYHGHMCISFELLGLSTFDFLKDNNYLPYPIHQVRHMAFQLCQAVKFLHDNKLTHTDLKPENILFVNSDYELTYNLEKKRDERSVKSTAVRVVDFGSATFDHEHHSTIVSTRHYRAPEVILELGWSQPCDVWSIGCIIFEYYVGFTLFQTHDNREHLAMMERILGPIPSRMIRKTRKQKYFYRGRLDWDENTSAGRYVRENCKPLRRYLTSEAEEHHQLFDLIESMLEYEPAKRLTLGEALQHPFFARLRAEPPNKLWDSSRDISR
Entry flag: criterion met if ΔTm reaches 0.5 °C; criterion not met if it does not.

Some entries whose results are on file:
molecule	assignedCategory
CCOC(=O)c1c(C)[nH]c(/C=C2\C(=O)Nc3ccccc32)c1C	criterion met
Oc1ccc(-c2nc(-c3ccc(F)cc3)c(-c3ccncc3)[nH]2)cc1	criterion not met

Kindly determine if ΔTm recorded for O=C1Nc2ccc(I)cc2/C1=C\c1cc(Br)c(O)c(Br)c1 is above or exactly 0.5 °C.
criterion met

C[S+]([O-])c1ccc(CSc2nc(-c3ccc(F)cc3)c(-c3ccncc3)[nH]2)cc1 (stereo not given) , same question.
criterion not met

Try the molecule CC(C)[C@H](CO)Nc1nc(Nc2cc(N)cc(Cl)c2)c2ncn(C(C)C)c2n1 [AMINOPURVALANOL]
criterion met

Would you mind doing CC(C)n1cnc2c(NCc3ccccc3O)nc(NCCCO)nc21 as well?
criterion met

Field entry: NC(=O)c1ccc2[nH]c(-c3ccc(Oc4ccc(Cl)cc4)cc3)nc2c1
criterion not met

And then Nc1n[nH]c2nc3ccccc3nc12 [QUINOXALINE1] , what is it?
criterion met

Repeat with c1ccc(-c2n[nH]c3c2oc2ccccc23)cc1
criterion met

###

assayTarget: Tyrosine-protein kinase SYK (Homo sapiens, UniProt P43405)
protocolNotes: Inhibition of Syk
measurementKind: IC50 (nM)
Field format: number, assumed nM, no unit text.

compound	measurement
O=C1Nc2ccccc2/C1=C\c1ccc[nH]1	14

Notebook: pull reported IC50 for Tyrosine-protein kinase SYK (Homo sapiens, UniProt P43405), entry O=C(Nc1cccc(Nc2nccc(Nc3cccc(C(F)(F)F)c3)n2)c1)C1CC1 [ANILINOPYRIMIDINE1]
887

###

What follows is a record of ΔTm for UniProtKB Q00536.
Sequence (Q00536 whole entry): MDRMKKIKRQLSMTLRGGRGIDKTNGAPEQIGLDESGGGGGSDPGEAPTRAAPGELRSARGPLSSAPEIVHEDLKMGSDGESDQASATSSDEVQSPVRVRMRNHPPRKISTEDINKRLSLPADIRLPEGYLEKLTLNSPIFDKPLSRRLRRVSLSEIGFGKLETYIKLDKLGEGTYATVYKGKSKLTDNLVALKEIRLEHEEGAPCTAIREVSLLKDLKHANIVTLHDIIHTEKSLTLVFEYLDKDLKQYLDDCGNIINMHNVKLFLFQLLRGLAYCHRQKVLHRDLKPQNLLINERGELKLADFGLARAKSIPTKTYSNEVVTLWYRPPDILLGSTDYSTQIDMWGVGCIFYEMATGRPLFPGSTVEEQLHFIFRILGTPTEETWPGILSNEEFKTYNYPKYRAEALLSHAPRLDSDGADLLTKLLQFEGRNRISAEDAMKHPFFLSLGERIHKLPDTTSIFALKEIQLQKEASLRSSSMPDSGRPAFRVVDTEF
Entry rule: numbers only, all in °C.

Worked examples, 8 compounds total:
compound	displayUnit	measurement
Nc1cc2ncnc(Nc3cccc(Br)c3)c2cc1N	°C	-0.4
O=c1c(O)c(-c2ccc(O)c(O)c2)oc2cc(O)cc(O)c12 [QUERCETIN]	°C	1.8
Nc1cccc(-c2cc3c(Oc4cccc(O)c4)ncnc3[nH]2)c1	°C	0.1
NC(=O)c1ccc(-c2nc(-c3ccc4c(c3)OCCO4)c(-c3ccccn3)[nH]2)cc1	°C	-0.4
O=C1Cc2c([nH]c3ccc(Br)cc23)-c2ccccc2N1 [KENPAULLONE]	°C	2
Cc1nc2sccn2c(=O)c1CCN1CCC(=C(c2ccccc2)c2ccc(F)cc2)CC1	°C	-0.5
Oc1cc(O)cc(/C=C/c2ccc(O)c(O)c2)c1 [PICEATANNOL]	°C	0
Cc1ccc(NC(=O)c2cccc(N(C)C)c2)cc1NC(=O)c1ccc(O)cc1	°C	0.3

Consider the compound shown here: COc1cc2ncnc(Nc3cccc(Br)c3)c2cc1OC What is its recorded ΔTm?
-0.9

CN(C)c1ncnc2nc[nH]c12 [DIMETHYLADENINE] , same question.
-0.3

Can you handle CC(C)(C)n1nc(-c2ccc(Cl)cc2)c2c(N)ncnc21 next?
-0.5

Try this compound too: COc1cc(C[C@H]2C(=O)OC[C@@H]2Cc2ccc(OC)c(OC)c2)ccc1O [ARCTIGENIN]
-0.1

Same question for O=C(O)Cc1ccc(O)c([N+](=O)[O-])c1 please.
-1.2

One more compound: N#CC(C#N)=Cc1ccc(O)c(O)c1 [TYRPHOSTIN 23]
-0.7

Input C=CNC#N
0.4

Next record, please: CN1CCc2[nH]c(=S)c(C#N)c(-c3cccs3)c2C1
4.1

Field entry: COc1ccc(CNC(=O)Nc2ncc([N+](=O)[O-])s2)cc1
-0.8

###

assayTarget: Serine/threonine-protein kinase VRK1 (Homo sapiens)
Sequence (whole entry): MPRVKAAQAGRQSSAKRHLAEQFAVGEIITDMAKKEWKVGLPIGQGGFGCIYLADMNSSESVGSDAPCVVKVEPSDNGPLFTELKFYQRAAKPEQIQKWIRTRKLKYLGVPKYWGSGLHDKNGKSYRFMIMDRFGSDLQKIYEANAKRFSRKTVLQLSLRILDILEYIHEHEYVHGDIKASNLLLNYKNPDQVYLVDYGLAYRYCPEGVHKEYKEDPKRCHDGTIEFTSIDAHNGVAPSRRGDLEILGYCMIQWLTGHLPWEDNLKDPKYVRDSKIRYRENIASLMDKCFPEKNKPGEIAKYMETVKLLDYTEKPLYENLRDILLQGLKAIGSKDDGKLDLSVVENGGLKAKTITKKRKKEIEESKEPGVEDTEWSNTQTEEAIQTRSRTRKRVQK
Think of 0.6 °C as a floor: if ΔTm stands on it or above, it is 1 (yes); beneath it, 0 (no).

molecule	assignedCategory
COc1cc2ncnc(Nc3cccc(Br)c3)c2cc1OC	1 (yes)

Is reported ΔTm greater than or equal to 0.6 °C here: O=C1Cc2c([nH]c3ccc([N+](=O)[O-])cc23)-c2ccccc2N1
0 (no)

For C=CNC#N then?
1 (yes)

And what about the molecule COc1cc2ncnc(Nc3ccc(F)c(Cl)c3)c2cc1OCCCN1CCOCC1 ?
0 (no)

O=C1Nc2ccc(I)cc2/C1=C\c1cc(Br)c(O)c(Br)c1 , same question.
1 (yes)

Ok, now NS(=O)(=O)c1ccc(Nc2nc(OCC3CCCCC3)c3nc[nH]c3n2)cc1
1 (yes)

// repeat for CC[C@H](CO)Nc1nc(NCc2ccccc2)c2ncn(C(C)C)c2n1 and report
0 (no)

Note, next up: CCOc1cc(/C=C(\C#N)C(N)=O)cc(CSc2ccccc2)c1O
0 (no)
